Overview of reported GI50 across a group of compounds:
System: A549
Assay: Antiproliferative SRB assay (NCI protocol), A549
Assay type: cell-based, human
Conditions: Homo sapiens; A549 (lung), 48 h drug exposure, SRB; ± SD
Kindly provide the numeric value in µM only, without the unit symbol.

Answered examples (5):
Compound	GI50 (µM)
C=C(C(=O)N(Cc1ccccc1)C(C)(C)C(=O)NC1CCCCC1)[C@@H]1CCC2=CC(=O)C[C@H](C)[C@@]2(C)C1	28
C=C(C(=O)N(Cc1ccccc1)C(C)(C)C(=O)NCc1ccccc1)C1CCC2(C)CCCC(C)(O)C2C1 (stereo not shown)	5.3
C=C(C(=O)N(c1ccccc1)C(C)(C)C(=O)NC(C)(C)C)C1CCC2(C)CCCC(C)(O)C2C1 (stereo not shown)	31
C=C(C(=O)N(c1ccccc1)C(C)(C)C(=O)NC1CCCCC1)[C@@H]1CCC2=CC(=O)C[C@H](C)[C@@]2(C)C1	27
C=C(C(=O)N(Cc1ccccc1)C(C)(C)C(=O)NC1CCCCC1)C1CCC2(C)CCCC(C)(O)C2C1 (stereo not shown)	13

Moving on to another compound below.
Query: Requested read-out GI50, target or system A549, entry C=C(C(=O)N(Cc1ccccc1)C(C)(C)C(=O)NC(C)(C)C)C1CCC2(C)CCCC(C)(O)C2C1 (stereo not shown)
Result: 20
